Origin of values: ChEMBL document CHEMBL4229532

Attribute: IC50
Molecular target: Histone deacetylase 1 (Homo sapiens)
Sequence (Q13547 whole entry): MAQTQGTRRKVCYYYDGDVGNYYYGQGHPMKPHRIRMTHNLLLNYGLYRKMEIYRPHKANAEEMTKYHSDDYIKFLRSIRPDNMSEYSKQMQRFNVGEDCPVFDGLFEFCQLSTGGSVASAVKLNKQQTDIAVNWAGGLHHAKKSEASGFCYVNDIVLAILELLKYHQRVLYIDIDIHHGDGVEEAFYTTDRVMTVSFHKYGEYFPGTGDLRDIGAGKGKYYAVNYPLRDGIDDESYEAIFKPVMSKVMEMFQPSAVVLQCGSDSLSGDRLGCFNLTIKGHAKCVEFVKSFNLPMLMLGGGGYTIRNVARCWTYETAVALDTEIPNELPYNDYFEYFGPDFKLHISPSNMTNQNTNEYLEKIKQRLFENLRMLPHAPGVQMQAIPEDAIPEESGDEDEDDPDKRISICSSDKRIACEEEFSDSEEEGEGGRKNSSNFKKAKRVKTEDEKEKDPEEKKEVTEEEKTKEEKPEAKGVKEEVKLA
Test: Inhibition of recombinant human HDAC1 expressed in baculovirus infected High5 insect cells using Ac-Lys-Tyr-Lys(epsilon-acetyl)-AMC as substrate after 24 hrs by fluorescence assay
The reply should contain only the number, in µM.

// known answers, use as guide
structure smiles	measurement unit	IC50
CCc1c2c(nc3ccc(O)cc13)-c1cc3c(c(=O)n1C2)COC(=O)[C@@]3(CC)OC(=O)CCCCCCCCCC(=O)NO	µM	6.18
CCc1c2c(nc3ccc(OC(=O)N4CCN(C(=O)CCCCCCCCCC(=O)NO)CC4)cc13)-c1cc3c(c(=O)n1C2)COC(=O)[C@]3(O)CC	µM	17.4

Problem: Please list IC50 recorded for the compound CCc1c2c(nc3ccc(O)cc13)-c1cc3c(c(=O)n1C2)COC(=O)[C@@]3(CC)OC(=O)CCCCCCCC(=O)NO
Solution: 0.97
